# Condition Set: 308.15 K; 25000 kPa; Liquid; Vibrating tube method
Assay Endpoint: mass density (kg/m3)
Hi! Could you send only the number? It should be in kg/m3, unit omitted.

// known answers, use as guide
Problem: // lookup mass density for CC(C)CCOCCC(C)C [di-(3-methylbutyl) ether]
Result: 783.45

Problem: // lookup mass density for CCOC(C)(C)C [2-ethoxy-2-methylpropane]
Result: 753.01

Problem: // lookup mass density for COC(C)(C)C [2-methoxy-2-methylpropane]
Result: 752.67

Problem: // lookup mass density for CCCCCOCCCCC [dipentyl ether]
Result: 790.57

Problem: // lookup mass density for CCCOCCC [dipropyl ether]
Result: 758.41

---
Problem: // lookup mass density for CCCCOC [butyl methyl ether]
Result: 756.35

Problem: // lookup mass density for CCCCOCC [butyl ethyl ether]
Result: 760.26

Problem: // lookup mass density for CC(C)OC(C)C [diisopropyl ether]
Result: 737.29
